Experiment: physchem
Assay type: physicochemical
Settings: 25 °C, water
Observable: solubility (mg/mL)

(a) Nc1ncc2ncn(COCCO)c2n1 [6-deoxyacyclovir, 2-amino-9-(2-hydroxyethoxymethyl)purine]
(b) Nc1nc2c(ncn2COCCO)c(=O)[nH]1 [acyclovir, 9-(2-hydroxyethoxymethyl)guanine]
-- ask Hi, I'm comparing two records. Which one has the lower solubility, a or b ? To answer, give the label that identifies your chosen option.
-- reply b
(b: 1.23 mg/mL, a: 50 mg/mL)
